molecular target: Nuclear receptor subfamily 5 group A member 2 (Homo sapiens) (UniProt O00482); assay: LRH-1 (NR5A2) inverse agonists, retest, confirmation, cell-based, luminescence (AID 651613); details: cell-based LRH-1 luciferase reporter, inverse agonism; at 3.6 µM; active compounds read high;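 also: HEK293T cells co-transfected with LRH-1 and StAR promoter luciferase reporter; 0% = vehicle wells and 100% = parental cells lacking receptor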
Sequence (O00482 whole entry, looked up): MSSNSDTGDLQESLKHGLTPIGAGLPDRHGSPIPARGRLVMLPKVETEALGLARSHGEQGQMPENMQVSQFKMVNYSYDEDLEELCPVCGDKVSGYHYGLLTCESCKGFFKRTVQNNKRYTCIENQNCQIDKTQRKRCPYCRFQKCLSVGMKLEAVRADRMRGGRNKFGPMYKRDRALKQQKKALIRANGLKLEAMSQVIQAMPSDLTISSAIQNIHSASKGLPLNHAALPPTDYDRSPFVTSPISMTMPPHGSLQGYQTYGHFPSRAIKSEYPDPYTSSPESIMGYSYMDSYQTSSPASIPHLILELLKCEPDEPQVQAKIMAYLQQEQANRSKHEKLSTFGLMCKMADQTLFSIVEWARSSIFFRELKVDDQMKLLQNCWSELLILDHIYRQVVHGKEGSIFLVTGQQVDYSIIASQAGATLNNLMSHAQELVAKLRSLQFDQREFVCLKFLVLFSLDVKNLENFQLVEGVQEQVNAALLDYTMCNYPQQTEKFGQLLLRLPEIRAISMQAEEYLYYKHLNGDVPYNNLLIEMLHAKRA
Below is a list of entries, each paired with its recorded inhibition value.

compound	unit-name	inhibition
CC(NC(=O)c1ccc([N+](=O)[O-])o1)C1CC2CCC1C2 (stereo unspecified)	%	49.1
CCS(=O)(=O)Nc1cccc(-c2ccc3nnc(-c4cccnc4)n3n2)c1	%	52.1
O=C(COC(=O)c1cccc(O)c1)Nc1ccc(N2CCOCC2)cc1	%	54.3
Cc1cc(=O)oc2c(C)c(OCC(=O)NC3CC(C)(C)NC(C)(C)C3)ccc12	%	48
CCOC(=O)c1c(NC(=O)/C=C/C(=O)O)sc(C)c1-c1ccc(Cl)cc1	%	59.2
O=C(NCc1ccco1)c1cccc(NC(=O)c2ccccc2)c1	%	65.6

====

Below is a list of entries, each paired with its recorded inhibition value.
assay: StAR promoter reporter inhibitors, counter-screen for LRH-1 inverse agonist project, cell-based, luminescence, high throughput (AID 651611); conditions: StAR promoter luciferase reporter counterscreen, at 3.6 µM, active compounds read high
Active and inactive are the calls of the source. Rule as the data show it: active = inhibition above about 28%; inactive = the rest.
result-type: inhibition

compound	result
COc1ccccc1-[n+]1c(C)cc(/C=C2\Sc3ccccc3N2C)cc1C	38.9% (active)
CC(=O)OC[C@]12CC[C@H]3[C@@](C)(CC[C@H]4C(C)(C)CCC[C@]34C)[C@@H]1CC(C1=CC(=O)OC1O)O2 (stereo partly specified)	92.7% (active)
COc1cc(CSc2nnnn2-c2ccc(C)cc2)cc(OC)c1OC	24.4% (inactive)
Cc1ccc(NC(=O)CN2C(=O)NC(C)(CC(C)C)C2=O)c(Br)c1 (stereo unspecified)	15.9% (inactive)
O=C(CSc1nc2ccccc2c(=O)n1-c1ccc(Cl)c(Cl)c1)Nc1ccc2c(c1)CCC2	-1.82% (inactive)
CCN(Cc1ccccc1)c1ccc(/C=N/N2CCOCC2)cc1	-41.2% (inactive)
CCCOC(=O)c1[nH]c2c(c1C)C(=O)CC(c1cc(OC)c(OC)c(OC)c1)C2 (stereo unspecified)	29% (active)
CCC1(C)OC(=O)N2CCc3c(C)[nH]c4c(C)ccc(c34)C21C (stereo unspecified)	8.96% (inactive)
Cc1cc(C(=O)N/N=C/c2ccc([N+](=O)[O-])o2)c(C)o1	9.16% (inactive)
CCC1(O)C(=O)OCc2c1cc1n(c2=O)Cc2cc3cc(O)ccc3nc2-1 (stereo unspecified)	84.6% (active)
O=[N+]([O-])c1ccc(COc2cccc(CNc3ccc(Br)cc3)c2)cc1	3.67% (inactive)
COc1ccc(C2=Nn3c(nnc3-c3ccccc3OC)SC2)cc1OCC1CC1	49.1% (active)
COc1cc(C2c3cc4c(cc3OC(Nc3ccc(C(=O)O)cc3)C2C)OCO4)cc(OC)c1OC (stereo unspecified)	44.5% (active)
O=C(N/N=C/c1ccc(O)cc1)c1ccc(COc2cc(Cl)ccc2Cl)o1	22.3% (inactive)
CCc1cc(=O)oc2c(C)c(OCC(=O)NCCCN3CCCC3=O)ccc12	8.43% (inactive)
COc1ccc(Oc2ccccc2/C=N/O)cc1	2.42% (inactive)
C=CS(=O)(=O)N(Cc1ccccc1Br)[C@H](CO)Cc1ccccc1	20.1% (inactive)
Cc1nc2ccc(NC(=O)c3cc(S(=O)(=O)N(C)c4ccccc4)ccc3Cl)cc2s1	30.4% (active)
O=C(CN1C(=O)NC2(CCCCC2)C1=O)NCCc1c[nH]c2ccccc12	10.1% (inactive)
COc1cc(CNc2ccc(CNc3ncn[nH]3)cc2)ccc1OCC(=O)NC(C)(C)C	-5.1% (inactive)
CC(C)(C)OC(=O)NCCCCCc1cn([C@@H](CO)C(=O)NCCCCCCCCCCC(=O)N2CCN(C(=O)OC(C)(C)C)CC2)nn1	59.5% (active)

====

test: StAR promoter reporter inhibitors, counter-screen for LRH-1 inverse agonist project, cell-based, luminescence, high throughput (AID 651611); settings: StAR promoter luciferase reporter counterscreen, at 3.6 µM
The source made the active and inactive calls. Rule as the data show it: active = inhibition above about 28%; inactive = the rest.
Outcomes: 1 = active, -1 = inactive

molecule	category
N#CCCn1cc(/C=N/NC(N)=S)c(-c2ccc(-c3ccccc3)cc2)n1	1
O=c1[nH]c(Nc2ccc3c(c2)OCCO3)nnc1Cc1ccccc1	-1
COc1ccc(CNC(=O)c2sc(=O)n(Cc3ccc(-c4ccccc4)cc3)c2C)cc1OC	-1
Cn1cccc1C(=O)OCC(=O)NCCCc1ccccc1	-1
Cc1ccc(C#CC[N+]2(CC#Cc3ccc(C)cc3)CCCCC2)cc1	1
COc1cc(C2c3cc4c(cc3OC(NNC(N)=S)C2C)OCO4)cc(OC)c1OC (stereo not given)	1
COc1cc(C=CC(=O)c2cc(OC)c(OC)c(OC)c2)cc(OC)c1OC	1
OCC1OC(n2cnc3c(NCc4ccco4)ncnc32)C(O)C1O (stereo not given)	1
O=C(CSCC(=O)Nc1ccccc1)N/N=C/c1c(O)ccc2ccccc12	1
O=[N+]([O-])c1ccc(/C=N/n2c(CO)nc3ccccc32)s1	-1
CN(C)c1nnnn1-c1cccc(Oc2ncc(C(F)(F)F)cc2Cl)c1	-1
O=C(COC(=O)Cc1ccccc1[N+](=O)[O-])NCc1ccc(Cl)cc1	-1
CCCCCCCC[n+]1cccc2c3ccccc3ccc21	1
COc1ccc(OC)c(NS(=O)(=O)c2ccc(SC)cc2)c1	1
CCCn1c(=NC(=O)CCS(=O)(=O)c2ccccc2)sc2cc(S(N)(=O)=O)ccc21	-1
COc1ccc(-c2c[n+]3c(n2-c2ccc(C)cc2)CCCCC3)cc1	1
Cc1ccc(Nc2nc(-c3cccnc3)nc3ccccc23)cc1	1
COc1ccc(-c2n(CC(=O)OC3CC(C)CCC3C(C)C)c3ccccc3[n+]2C)cc1 (stereo not given)	1
c1ccc(C[n+]2cccc3c4ccccc4ccc32)cc1	1
Cn1c(=O)c2cc(NC(=O)CCc3ccc(O)cc3)ccc2n1Cc1cccc(C(F)(F)F)c1	1
COc1ccc(-c2n(Cc3ccccc3)c3ccccc3[n+]2Cc2ccccc2)cc1	1
CC1=[N+](C)c2c(ccc3cccnc23)C1(C)C	-1
CCCCCn1c2c(c(=N)c3ccccc31)CCC2	1
COc1ccccc1NC(=O)CN1CCN(CC(=O)Nc2ccc3c(c2)OCO3)CC1	-1
Cc1ccc(NC(=O)CSc2nnc(-c3n[nH]c4ccccc34)n2-c2ccccc2)c(C)c1	-1
O=C(CCl)N(c1ccccc1)c1c[nH]c2ccccc12	1
O=C(Cc1ccc(S(=O)(=O)N2CCCC2)s1)Nc1cccc([N+](=O)[O-])c1	-1
CC(=O)N1CCN(c2ccccc2NC(=O)c2cc3ccccc3o2)CC1	-1
O=C(c1ccc(Oc2ccc(Cl)cc2)c([N+](=O)[O-])c1)N1CCCC1	-1
COC(=O)c1ccc(NC(=O)CN2CCN(c3ccc(Cl)cc3)CC2)cc1	-1
CC(C)Oc1cccc(-c2cc(C(=O)NN3CCOCC3)c3ccccc3n2)c1	-1
O=C(Nc1nc2ccccc2[nH]1)c1ccccc1F	-1
CNc1nc2sc3c(c2c(=O)n1C)CC(C)(C)SC3	-1
CC(=O)NC(c1ccc2ccccc2c1)c1ccc2cccnc2c1O (stereo not given)	1
CC(=O)Nc1ccc(NC(=O)CSc2ccc(-c3ccc(-n4ccnc4)cc3)nn2)cc1	-1
C[n+]1c(-c2ccccc2)cc2c(=Cc3ccccc3)c3ccccc3n21	1
COc1ccc(OC)c(NC(=S)NCc2cccnc2)c1	-1
O=C(/C=C/Nc1ccccc1Br)c1ccccn1	1
Clc1ccc(-n2ncc3c(N4CCCCCC4)ncnc32)cc1	1
C/C(CC1CC(C)(C)OC1=O)=N/Nc1nc(-c2ccccc2)cs1 (stereo not given)	-1
O=C(NCCc1ccccc1)c1ccc2c(c1)OCCCO2	1
N=c1c2c(n(Cc3ccccc3)c3c1CCC3)CCC2	1
c1ccc2cc3c(NCCN4CCOCC4)ccnc3cc2c1	1
Cn1nc(C(C)(C)C)cc1C(=O)NCc1ccc2c(c1)OCO2	-1
Cc1ccc(NC(=O)CNNC(=O)c2cccc([N+](=O)[O-])c2)cc1[N+](=O)[O-]	-1

====

target: Nuclear receptor coactivator 3 (Homo sapiens) (UniProt Q9Y6Q9); experiment: SRC3 coactivator transcriptional activity inhibitors, confirmation, cell-based, luminescence, quadruplicate (AID 588792); conditions: HEK293 GAL4-SRC3 luciferase reporter, at 3.6 µM;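 also: 0% = DMSO treated cells and 100% = gossypol at 36 µM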
Sequence (Q9Y6Q9 whole entry, looked up, the tested form may be a part): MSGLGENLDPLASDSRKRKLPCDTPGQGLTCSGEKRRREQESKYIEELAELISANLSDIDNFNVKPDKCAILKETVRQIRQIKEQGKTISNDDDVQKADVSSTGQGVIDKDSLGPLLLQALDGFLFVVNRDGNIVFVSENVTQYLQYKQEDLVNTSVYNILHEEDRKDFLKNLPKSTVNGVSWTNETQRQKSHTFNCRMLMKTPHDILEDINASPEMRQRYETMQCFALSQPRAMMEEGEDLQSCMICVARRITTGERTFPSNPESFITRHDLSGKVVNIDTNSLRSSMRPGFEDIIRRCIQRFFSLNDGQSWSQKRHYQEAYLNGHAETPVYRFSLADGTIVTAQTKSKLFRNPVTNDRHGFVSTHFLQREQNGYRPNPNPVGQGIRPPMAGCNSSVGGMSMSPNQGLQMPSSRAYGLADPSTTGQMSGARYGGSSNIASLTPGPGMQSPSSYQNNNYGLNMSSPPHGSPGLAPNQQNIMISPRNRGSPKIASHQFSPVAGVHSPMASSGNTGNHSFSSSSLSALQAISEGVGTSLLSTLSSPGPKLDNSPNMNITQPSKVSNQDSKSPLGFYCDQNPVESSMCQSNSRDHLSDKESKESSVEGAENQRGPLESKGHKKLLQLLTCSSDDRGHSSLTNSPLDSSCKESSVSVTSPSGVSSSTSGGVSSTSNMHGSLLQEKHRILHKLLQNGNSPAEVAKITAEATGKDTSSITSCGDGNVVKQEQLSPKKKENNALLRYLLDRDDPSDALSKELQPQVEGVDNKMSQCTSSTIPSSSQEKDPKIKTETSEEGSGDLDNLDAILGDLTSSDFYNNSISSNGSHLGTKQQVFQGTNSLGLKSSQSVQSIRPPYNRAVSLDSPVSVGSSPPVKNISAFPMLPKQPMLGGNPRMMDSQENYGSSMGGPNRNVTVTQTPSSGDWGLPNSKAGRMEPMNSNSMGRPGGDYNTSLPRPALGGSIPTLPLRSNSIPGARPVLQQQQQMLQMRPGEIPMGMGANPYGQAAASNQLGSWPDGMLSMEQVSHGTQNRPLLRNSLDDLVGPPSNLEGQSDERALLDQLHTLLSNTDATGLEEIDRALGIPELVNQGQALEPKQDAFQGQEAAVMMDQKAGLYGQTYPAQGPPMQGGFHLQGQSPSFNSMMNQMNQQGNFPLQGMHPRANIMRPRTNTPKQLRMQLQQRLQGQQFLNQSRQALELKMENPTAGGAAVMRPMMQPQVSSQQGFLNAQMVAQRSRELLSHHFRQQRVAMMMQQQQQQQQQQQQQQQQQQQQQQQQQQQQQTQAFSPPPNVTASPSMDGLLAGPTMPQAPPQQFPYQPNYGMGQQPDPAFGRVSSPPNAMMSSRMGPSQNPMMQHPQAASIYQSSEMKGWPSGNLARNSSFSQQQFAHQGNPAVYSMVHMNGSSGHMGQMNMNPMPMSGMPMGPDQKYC
The source made the active and inactive calls.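 The calls were made as follows: active = mean inhibition over 43.08%, the solvent-only control mean plus 3 SD; inactive = the rest.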
Outcomes: active, inactive

molecule	category
O=C(N/N=C/c1cc(Cl)ccc1O)C(=O)Nc1ccccc1OC(F)(F)C(F)F	inactive
Cc1ccc(C(=O)N(Cc2cccs2)C2CCS(=O)(=O)C2)cc1 (stereo unspecified)	inactive
C=CC[C@@H](CC(=O)N(CCO)Cc1ccccc1)C(=O)N[C@@H](C)COC(=O)[C@@H](CC=C)Cc1ccc(F)cc1	inactive
CC1CC(C)C(=O)C(C(CC2CC(=O)NC(=O)C2)OC(=O)CC(=O)c2ccccc2)C1 (stereo unspecified)	active
Cc1nccc(-c2ccc(-n3cnc4ccccc43)cc2)n1	inactive
Cc1nc([N+](=O)[O-])c(Sc2nc3ccccc3[nH]2)n1Cc1ccccc1	inactive
Cc1[nH]c(=O)c(C(=O)/C=C/c2ccccc2)c2c1CCCC2	active
NC(=S)Nc1cc(Cl)cc(Cl)c1	inactive
Cn1nnnc1Sc1ncnc2scc(-c3ccccc3)c12	inactive
CCCCCCCCCCCCCCCC[n+]1cccc2ccccc21	active
Fc1ccc(CSc2nnc(-c3ccncc3)o2)cc1	active
